target.desc: h-GABA-A α5β3γ2 (Homo sapiens, UniProt P18507+P31644)
Construct: expressed in transfected cells; host or cells: Xenopus laevis oocytes, micro-injected with subunit RNA
test.description: [3H]flumazenil competition binding assay on membranes of HEK293 cells expressing GABAA receptors
measurement.parameters: Table 1; displacement of [3H]-Flumazenil (0.5 nM), HEK293 cells expressing human receptors, means of two determinations
pKi: −log10 of the molar value.
Mark label 0 for pKi values under 8, and label 1 for everything at or above.

| compound | classification |
| --- | --- |
| Cn1nnc(-c2ncc(C(F)(F)F)cn2)c1Cn1ncc(N2CC(OC(F)F)C2)cc1=O [Example 121] | label 0 |
| Cc1nnn(-c2ccc(Cl)cc2F)c1Cn1ncc(N2C[C@H](C)O[C@@H](C)C2)cc1=O (racemic) [Example 37] | label 1 |
| Cn1nnc(-c2ccc(Cl)cc2F)c1Cn1ncc(N2CCOCC2)cc1=O [Example 16] | label 1 |
| CN(C)c1cnn(Cc2c(-c3ccc(Cl)cc3)nnn2C)c(=O)c1 [Example 31] | label 0 |
